Data provenance is ChEMBL document CHEMBL4052617.

- System: Escherichia coli
- testDetails: Antibacterial activity against Escherichia coli ATCC […] expressing NDM-1 beta-lactamase after 18 hrs by Mueller-Hinton broth microdilution method
- Format: functional
measuredQuantity: MIC (µg/mL)
I only need the number, in µg/mL, no unit after it.

Use these answered entries as a reference point.
C[n+]1c2ccccc2c(Nc2ccc(OC(F)(F)F)cc2)c2oc3ccccc3c21.[I-]; 8
C[n+]1c2ccccc2c(Nc2cccc(F)c2)c2[nH]c3ccccc3c21.[I-]; 12
Cc1ccccc1Nc1c2ccccc2[n+](C)c2c1oc1ccccc12.[I-]; 16
CCc1ccc(Nc2c3ccccc3[n+](C)c3c2[nH]c2ccccc23)cc1.[I-]; 8
COc1cccc(Nc2c3ccccc3[n+](C)c3c2[nH]c2ccccc23)c1.[I-]; 8

Param item = Cc1ccc(Nc2c3ccccc3[n+](C)c3c2[nH]c2ccccc23)cc1F.[I-] ; retrieve measured MIC.
8

Param item = Cc1cc(C)cc(Nc2c3ccccc3[n+](C)c3c2oc2ccccc23)c1.[I-] ; retrieve measured MIC.
12

Param item = CCOc1ccc(Nc2c3ccccc3[n+](C)c3c2oc2ccccc23)cc1.[I-] ; retrieve measured MIC.
8

Param item = C[n+]1c2ccccc2c(Nc2ccc(F)cc2)c2[nH]c3ccccc3c21.[I-] ; retrieve measured MIC.
8

Param item = Cc1ccc(Nc2c3ccccc3[n+](C)c3c2[nH]c2ccccc23)cc1C.[I-] ; retrieve measured MIC.
8

Param item = C[n+]1c2ccccc2c(Nc2cccc(F)c2)c2oc3ccccc3c21.[I-] ; retrieve measured MIC.
16

Param item = C[n+]1c2ccccc2c(Nc2ccc(OC(F)(F)F)cc2)c2[nH]c3ccccc3c21.[I-] ; retrieve measured MIC.
6

Param item = CN[C@H](CC(C)C)C(=O)N[C@H]1C(=O)N[C@@H](CC(N)=O)C(=O)N[C@H]2C(=O)N[C@H]3C(=O)N[C@H](C(=O)N[C@H](C(=O)O)c4cc(O)cc(O)c4-c4cc3ccc4O)[C@H](O)c3ccc(c(Cl)c3)Oc3cc2cc(c3O[C@@H]2O[C@H](CO)[C@@H](O)[C@H](O)[C@H]2O[C@H]2C[C@](C)(N)[C@H](O)[C@H](C)O2)Oc2ccc(cc2Cl)[C@H]1O ; retrieve measured MIC.
6

Param item = CCOc1ccc(Nc2c3ccccc3[n+](C)c3c2[nH]c2ccccc23)cc1.[I-] ; retrieve measured MIC.
6

Param item = C[n+]1c2ccccc2c(Nc2ccccc2)c2oc3ccccc3c21.[I-] ; retrieve measured MIC.
16

Param item = CCOc1ccccc1Nc1c2ccccc2[n+](C)c2c1[nH]c1ccccc12.[I-] ; retrieve measured MIC.
8

* * *

- System: Staphylococcus aureus
- testDetails: Antibacterial activity against Staphylococcus aureus ATCC 29213 after 18 hrs by cation adjusted Mueller-Hinton broth microdilution method
- Format: functional
- assaySetup: ATCC 29213, 18 h
Define the label as rule met when MIC is strictly less than 4 µg/mL and as rule not met in all remaining cases.

Look over these answered cases.
Cc1ccccc1Nc1c2ccccc2[n+](C)c2c1[nH]c1ccccc12.[I-]; rule not met
C[n+]1c2ccccc2c(Nc2ccc(F)cc2)c2oc3ccccc3c21.[I-]; rule not met
CCc1ccc(Nc2c3ccccc3[n+](C)c3c2oc2ccccc23)cc1.[I-]; rule not met
COc1cccc(Nc2c3ccccc3[n+](C)c3c2oc2ccccc23)c1.[I-]; rule not met
Cc1ccccc1Nc1c2ccccc2[n+](C)c2c1oc1ccccc12.[I-]; rule not met
Cc1ccc(Nc2c3ccccc3[n+](C)c3c2oc2ccccc23)cc1F.[I-]; rule not met

Quick check: does Cc1ccc(Nc2c3ccccc3[n+](C)c3c2oc2ccccc23)cc1C.[I-] have MIC under 4 µg/mL?
rule not met

Quick check: does CCOc1ccccc1Nc1c2ccccc2[n+](C)c2c1oc1ccccc12.[I-] have MIC under 4 µg/mL?
rule not met

Quick check: does Cc1cc(C)cc(Nc2c3ccccc3[n+](C)c3c2oc2ccccc23)c1.[I-] have MIC under 4 µg/mL?
rule not met

Quick check: does C[n+]1c2ccccc2c(Nc2cccc(F)c2)c2[nH]c3ccccc3c21.[I-] have MIC under 4 µg/mL?
rule not met
